System: RAW-Dual (murine macrophage reporter line)
Assay: NF-kB reporter (SEAP) activity fold change vs agonist alone; higher = enhanced NF-kB activity
Details: modulator concentration 10 µM; agonist: CpG ODN 1826 0.5 ug/mL
reportedProperty: NF-kB reporter

>>> endpointvalue("O=C(NCC(F)(F)F)c1ccc(OCC2CCOCC2)nc1")
0.911
>>> endpointvalue("O=C(Nc1ccc(Cl)cc1)C(Sc1ccccc1)c1ccccc1 (stereo not drawn)")
0.994
>>> endpointvalue("O=C(CC1CCCCN1S(=O)(=O)c1ccccc1)NCCC1=CCCCC1 (stereo not drawn)")
0.994
>>> endpointvalue("CCCc1nn(C)c2c(=O)[nH]c(-c3cc(S(=O)(=O)N4CCN(C)CC4)ccc3OCC)nc12")
0.951
>>> endpointvalue("Cl.O=C1CN2Cc3c(ccc(Cl)c3Cl)NC2=N1")
0.954
>>> endpointvalue("CNC(=O)[C@@H](NC(=O)[C@H](CC(C)C)[C@H](O)C(=O)NO)C(C)(C)C")
1.29
>>> endpointvalue("Br.Cc1ccc(Sc2ccccc2N2CCNCC2)c(C)c1")
0.328
>>> endpointvalue("O=C(CSC1CCCCC1)Nc1ccc(Br)cc1")
1
>>> endpointvalue("CC(C)CC(C(=O)Nc1ccc(Cl)cc1)N1C(=O)c2ccccc2C1=O (stereo not drawn)")
1.01
>>> endpointvalue("Cc1ccc([N+](=O)[O-])cc1S(=O)(=O)N(C)C")
1.05
>>> endpointvalue("Cc1cc(OCC(O)CN2CCCCC2C)cc(C)c1Cl.Cl (stereo not drawn)")
0.79
>>> endpointvalue("CCCNCC(O)COc1ccccc1C(=O)CCc1ccccc1 (stereo not drawn)")
0.639
>>> endpointvalue("CCCOc1cccc(C(=O)Nc2scc(-c3ccccc3)c2C(=O)OC(C)C)c1")
1.79

----------
Tested on: RAW-Dual (murine macrophage reporter line)
Assay: NF-kB reporter (SEAP) activity fold change vs agonist alone; higher = enhanced NF-kB activity
Settings: modulator concentration 10 µM; agonist: MPLA […]
Examples of compounds with documented NF-kB reporter follow.
reportedProperty: NF-kB reporter

>>> endpointvalue("Cc1cccc2sc(NNC(=O)c3ccc(S(=O)(=O)N4CCc5ccccc5C4)cc3)nc12")
0.93
>>> endpointvalue("COc1ccc2cc1Oc1ccc(cc1)C[C@H]1c3c(cc4c(c3Oc3cc5c(cc3OC)CCN(C)[C@@H]5C2)OCO4)CCN1C")
0.928
>>> endpointvalue("CCOc1ccc(Nc2nc(Nc3ccc(OCC)cc3)nc(N3CCOCC3)n2)cc1")
2.82
>>> endpointvalue("CC1C(=O)N2CCCc3cc(S(=O)(=O)N4CCN(c5cccc(Cl)c5)CC4)cc1c32 (stereo unspecified)")
0.971
>>> endpointvalue("N#Cc1c(NC(NC(=O)c2cccs2)C(Cl)(Cl)Cl)sc2c1CCCC2 (stereo unspecified)")
0.878
>>> endpointvalue("Cc1ccc(C(=O)NC(=Cc2ccccc2)C(=O)NCCCn2ccnc2)cc1")
0.907

----------
Test system: RAW-Dual (murine macrophage reporter line)
Experiment: NF-kB reporter (SEAP) activity fold change vs agonist alone; higher = enhanced NF-kB activity
Details: modulator concentration 10 µM; agonist: MPLA […]
Class label 1: NF-kB reporter at least 1. Class label 0: NF-kB reporter below 1.

>>> assignedlabel("O=[N+]([O-])c1ccc2nc(S)sc2c1")
"label 1"
>>> assignedlabel("NS(=O)(=O)c1ccc(C(=O)O)cc1")
"label 1"
>>> assignedlabel("COc1ccc(C=Nc2ccc(OC(C)=O)cc2)cc1")
"label 1"
>>> assignedlabel("Cc1noc(C)c1CN1CCC(C(F)(F)F)CC1.Cl")
"label 1"
>>> assignedlabel("O=C(c1ccc(S(=O)(=O)N2CCCC2)cc1)N1CC(Nc2ccncn2)C1")
"label 0"
>>> assignedlabel("CC12CC3CC(C)(C1)CC(CNC(=O)c1ccc([N+](=O)[O-])cc1)(C3)C2")
"label 0"
>>> assignedlabel("COc1cccc(CCc2ccccc2OCC(CN(C)C)OC(=O)CCC(=O)O)c1.Cl (stereo unspecified)")
"label 0"
>>> assignedlabel("Cc1ccc(CN2CCN(N=Cc3c4ccccc4cc4ccccc34)CC2)cc1")
"label 1"
>>> assignedlabel("CCOc1nc2cccc(C(=O)O)c2n1Cc1ccc(-c2ccccc2-c2nnn[nH]2)cc1")
"label 0"
>>> assignedlabel("COC(=O)CCS(=O)(=O)c1ccc2ccccc2c1")
"label 1"
>>> assignedlabel("CCOC(=O)c1ccc(N2C(=O)CC(N3CCN(c4ccc([N+](=O)[O-])cc4)CC3)C2=O)cc1 (stereo unspecified)")
"label 0"
>>> assignedlabel("Cc1ccc(OCCOc2ncnc3ccccc23)c(Cl)c1")
"label 1"
>>> assignedlabel("CCOc1ccccc1OCCOCCOc1ccc(Br)cc1Cl")
"label 1"
>>> assignedlabel("Cc1ccc(OCC(=O)N2CCN(c3ccc(-n4cncn4)nn3)CC2)c(C(C)(C)C)c1")
"label 1"
